Each entry below carries its recorded inhibition at 10 µM.
# system-tested: human A3AR (Homo sapiens, UniProt P0DMS8)
# Construct: expressed in transfected cells
# Sequence (P0DMS8 1-318): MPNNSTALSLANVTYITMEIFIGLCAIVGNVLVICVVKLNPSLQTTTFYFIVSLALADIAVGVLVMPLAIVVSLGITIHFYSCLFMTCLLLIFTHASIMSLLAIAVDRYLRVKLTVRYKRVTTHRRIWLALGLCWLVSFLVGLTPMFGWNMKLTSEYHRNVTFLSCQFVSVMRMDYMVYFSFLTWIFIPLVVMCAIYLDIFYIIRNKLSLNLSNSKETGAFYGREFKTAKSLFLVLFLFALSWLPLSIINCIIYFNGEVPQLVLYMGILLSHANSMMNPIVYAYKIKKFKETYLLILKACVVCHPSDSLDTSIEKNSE
# assay-details: Radioligand binding ([125I]I-AB-MECA), membranes of CHO cells expressing hA3AR
# experimental-context: percent inhibition at 10 µM compound; hA3AR, CHO cell membranes, [125I]I-AB-MECA; read-out: A3 % Inhibition

compound | system-tested | measurement-unit | inhibition at 10 µM
Cn1c(=O)c2[nH]c(NCC3CCCO3)nc2n(-c2ccccc2)c1=O (stereo not drawn) | human A3AR (Homo sapiens, UniProt P0DMS8) | % | 23
CCN(Cc1nc2ccccc2c(=O)[nH]1)C(=O)c1cc(C2CC2)[nH]n1 | human A3AR (Homo sapiens, UniProt P0DMS8) | % | 42
O=C(Nc1nc(-c2ccccn2)cs1)c1cccc(-n2cnnn2)c1 | human A3AR (Homo sapiens, UniProt P0DMS8) | % | 35
CCOc1cccc2cc(C(=O)NCc3ccccn3)c(=N)oc12 | human A3AR (Homo sapiens, UniProt P0DMS8) | % | 48
Cc1cccc2c(=O)[nH]c(CSc3n[nH]c(C(C)C)n3)nc12 | human A3AR (Homo sapiens, UniProt P0DMS8) | % | 49
CC(NC(=O)c1ccco1)C(=O)Nc1nc(-c2ccccn2)cs1 (stereo not drawn) | human A3AR (Homo sapiens, UniProt P0DMS8) | % | 43
